Source listed as patent US20200200749A1.

experimental_system: BDBV GP (BDBV (Bundibugyo ebolavirus))
test_method_notes: ELISA
We begin with a simple list: items and their reported EC50.
Could you give me the number in µg/mL? Just the number is fine.

223 (antibody, V domains shown) VH: QVQLQQWGAGLLKPSETLSLTCAVYGGSFTTTYWNWIRQPPGKGLEWIGEVNYSGNANYNPSLKGRVAISVDTSKNQFSLRLNSVTAADTAIYYCTSRIRSHIAYSWKGDVWGKGTTVTVSS VL: EIVMTQSPGTLSLSPGERATLSCRASQSVPRNYIGWFQQKPGQAPRLLIYGASSRAAGFPDRFSGSGSGTDFTLTITRLEPEDFAMYYCHQYDRLPYTFGQGTKLEIK    0.022
324 (antibody, V domains shown) VH: QVQLVQSGAEVKKPGASVKVSCKTSGYTFTSFEIHWVRQGSGQGLEWMGRMNPKSGDTVSAQKFQGRVTLTRDTSINAAYMELGSLSSEDTAVYYCARGPHVGEVVPGLMAGTYYFPLDVWGQGTLVTVSS VL: DIQMTQSPSTLSASIGDRVTITCRASQSISRWLAWYQQKPGKAPKLLIYKVSDLQSGVPSRFSGSGYGTEFTLTIGSLQPDDLATYYCQQYDTYPWTFGQGTKLEIK    0.053
270 (antibody, V domains shown) VH: QVQLQESGPGLVKPSQTLSLTCTVSGASISRGLYYWSWIRQPAGKGLEWIGRIYTSGSINYNPSLKSRVTISVDTSKNQFSLRLSSVIATDTAVYYCVRDAPWGDFLTGYFGFYGMDVWGQGTLVTVSS VL: DIVMTQSPSSLSASVGDRVTITCRASQSINTYLNWYQQKPGKAPKFLIYAASSLHSGVPSRFSGSGSGTDFTLTINSLQPDDFATYYCQQSFTTPYTFGQGTKLEIK    0.154

Lab note: next binder to report on.
In: Which EC50 is listed for 289 (antibody, V domains shown) VH: QVQLVQSGAEVKKPGSSVKVSCKASGATFGSDTVTWVRQAPGQGLEWMGGIIPFFGEANYAQRFQGRVTITADKSTNTAYMELSSLRSEDTAVYFCARQINEMATFGEIHYYTYMDVWGQGTLVTVSS VL: GSELTQDPAVSVALGQTVRITCQGDSLRNYYASWYQQKPRQAPVLVFYGKNNRPSGIPDRFSGSSSGNTASLTISGAQAEDEADYYCNSRDSSSNHLVFGGGTKLTVLS ?
Out: 0.02
